Assay: activity coefficient (dimensionless); of the first substance listed, at infinite dilution; xn = mol fraction of the nth substance listed
Conditions: 333.15 K; 101 kPa; Liquid; Chromatography; x1 = 0
Records here are stratified by activity coefficient; strata: bottom bin: < 2; middle bin: ≥ 2 and < 4; top bin: ≥ 4

Query string: Which activity coefficient category applies to Cc1ccccc1C [1,2-dimethylbenzene] + CCCCOP(=O)([O-])OCCCC.CCCCn1cc[n+](C)c1 here?
Result string: bottom bin

Query string: Which activity coefficient category applies to Cc1ccc(C)cc1 [1,4-dimethylbenzene] + CCCCOP(=O)([O-])OCCCC.CCCCn1cc[n+](C)c1 here?
Result string: bottom bin

Query string: Which activity coefficient category applies to c1ccccc1 [benzene] + CCCCOP(=O)([O-])OCCCC.CCCCn1cc[n+](C)c1 here?
Result string: bottom bin

Query string: Which activity coefficient category applies to Cc1cccc(C)c1 [1,3-dimethylbenzene] + CCCCOP(=O)([O-])OCCCC.CCCCn1cc[n+](C)c1 here?
Result string: bottom bin

Query string: Which activity coefficient category applies to C1=CCCCC1 [cyclohexene] + CCCCOP(=O)([O-])OCCCC.CCCCn1cc[n+](C)c1 here?
Result string: middle bin

Query string: Which activity coefficient category applies to CC(C)CC(C)(C)C [2,2,4-trimethylpentane] + CCCCOP(=O)([O-])OCCCC.CCCCn1cc[n+](C)c1 here?
Result string: top bin

Query string: Which activity coefficient category applies to CC1CCCCC1 [methylcyclohexane] + CCCCOP(=O)([O-])OCCCC.CCCCn1cc[n+](C)c1 here?
Result string: middle bin

Query string: Which activity coefficient category applies to CCCCCCC [heptane] + CCCCOP(=O)([O-])OCCCC.CCCCn1cc[n+](C)c1 here?
Result string: top bin

Query string: Which activity coefficient category applies to C1CCCCC1 [cyclohexane] + CCCCOP(=O)([O-])OCCCC.CCCCn1cc[n+](C)c1 here?
Result string: middle bin

// provenance: the NIST ThermoML archive (doi:10.1021/je201310d)
